Tested on: RXF-631 renal
Assay: NCI tumour cell line growth inhibition, 48 h
Parameter: TGI

Consider the compound shown here: c1cncc(O[Si](Oc2cccnc2)(Oc2cccnc2)Oc2cccnc2)c1 What is its recorded TGI?
> 100 µM

Entry under review: CCOC(=O)C1=C(C)N(NC(N)=O)C(C)(O)C12CCOC2=O (stereo unspecified) . Reported TGI?
> 100 µM

Entry Clc1ccc2nc(-c3ccccc3)nc(Cl)c2c1 has what TGI?
> 100 µM

Request the reported TGI associated with CC1(C)C=N[N+]2(C)C3C=CC(CC3)C12 (stereo unspecified)
> 100 µM

Given COc1cccc2c1C(=O)c1c(O)c3c(c(O)c1C2=O)C[C@@](O)(C(=O)CO)CC3OC1CC(O)C(O)C(C)O1 (stereo partly specified) , state its recorded TGI.
21.2 µM

I would be grateful if you could share the reported TGI for CC(CNCCCNCCNCCCNCO)[N+](=O)[O-] (stereo unspecified) .
30.3 µM
